B1: library; numbered along this chain (parent)
chain: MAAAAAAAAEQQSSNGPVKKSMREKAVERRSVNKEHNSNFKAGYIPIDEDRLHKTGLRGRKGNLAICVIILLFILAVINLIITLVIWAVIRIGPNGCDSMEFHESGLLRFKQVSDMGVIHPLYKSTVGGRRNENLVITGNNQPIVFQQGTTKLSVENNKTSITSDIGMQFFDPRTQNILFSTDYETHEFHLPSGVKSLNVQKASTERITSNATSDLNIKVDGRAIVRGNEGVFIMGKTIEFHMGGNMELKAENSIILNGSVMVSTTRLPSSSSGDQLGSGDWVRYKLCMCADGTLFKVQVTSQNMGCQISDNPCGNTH

- Variants of: B1
- METHOD: SGCB cell-surface expression functional score (HA stain, bin4 vs bin1, normalised to synonymous) (log10 ratio); higher = more cell-surface SGCB (functional)
Lab note: anything with SGCB cell-surface expression functional score (log10) at or over -0.1 counts as class 1; the rest go in class 0.

INSERT INTO assay_data (mutation, group_label) VALUES
  ('D165G', 'class 0'),
  ('K286C', 'class 0'),
  ('A8M', 'class 1'),
  ('I78N', 'class 1'),
  ('C307T', 'class 0'),
  ('C307F', 'class 0'),
  ('D172A', 'class 1'),
  ('H36T', 'class 0'),
  ('A6C', 'class 0'),
  ('M116K', 'class 0'),
  ('S38F', 'class 0');

Just for reference, the supplement of paper PMC10266784 is where these values come from.
